- Test system: Streptococcus faecalis 05045
- Assay explanation: in vitro antibacterial/antifungal (ABF) agar-disk diffusion test
- Assay type: cell-based
- Applied conditions: Enterococcus faecalis, AM-09 medium, 3 mg/ml, read-out: ABF Zone Diameter (cont. in mg/ml) S. Fae-calis
Recorded zone of inhibition at 3000 µg/mL, one value per entry.
Report as: number unit

Enquiry: Fill in the blank: the reported zone of inhibition at 3000 µg/mL of `CN(C)CCn1nc2c3c(c([N+](=O)[O-])ccc31)Sc1ccccc1-2` is ____.
Return: 15 mm

Enquiry: Fill in the blank: the reported zone of inhibition at 3000 µg/mL of `CN(C)CCCn1nc2c3c(c(N)ccc31)Sc1ccccc1-2` is ____.
Return: 15 mm

Enquiry: Fill in the blank: the reported zone of inhibition at 3000 µg/mL of `CCN(CC)CCn1nc2c3c(c(NC(C)=O)ccc31)Sc1ccccc1-2` is ____.
Return: 15 mm
